These data points were gathered from patent US20240285615A1.

# Assay Remarks: Phase 1 Part 2: cerebrospinal fluid (CSF) pharmacokinetics after multiple BID doses
# Format: in vivo, human
# Setup Conditions: both sexes, human, oral; CSF, 250 mg BID, Day 12, elderly subjects, arithmetic mean; read-out: t1/2 (converted)
Observed Property: half-life

CC(=O)Nc1nnc(N2CCN([C@@H](C)c3ccc4c(c3)OCO4)CC2)s1
618 min

----------
# Assay Remarks: Phase 1 Part 1a: single rising oral doses, fasted, plasma pharmacokinetics
# Assay type: in vivo, human
# Setup Conditions: male, human, plasma, po, 80 mg, single oral dose 80 mg, fasted, healthy male subjects, plasma, arithmetic mean; read-out: t1/2 (converted)
Observed Property: half-life (h)

CC(=O)Nc1nnc(N2CCN([C@@H](C)c3ccc4c(c3)OCO4)CC2)s1
8.84
